experiment: qHTS of pediatric cancer cell lines to identify multiple opportunities for drug repurposing: Primary screen for SJ-GBM2 cells (AID 1347091); conditions: SJ-GBM2 viability, CellTiter-Glo luminescence, 48 h; series mostly up to 46 µM
Results filed as inconclusive are left out. The source made the active and inactive calls. Calls follow the shape of the dose curve; as a rule, active = well fitted cell-killing curve with a large enough effect; inconclusive = small, poorly fitted or top-dose-only effect; inactive = no such curve, though single readings can be large or run the other way.
Your reply should match one of these outcome classes. 1 for active, 0 for inactive

As a guide, the following entries are already answered.
CCOC(=O)n1ccn(C)c1=S | 0
CC[C@@H](CO)NCCN[C@@H](CC)CO | 0
c1ccc(OCc2ccc(CCCN3CCOCC3)cc2)cc1 | 0
Cc1ccc(O)c2ncccc12 | 0
CC1(C)O[C@@H]2C[C@H]3[C@@H]4C[C@H](F)C5=CC(=O)CC[C@]5(C)[C@H]4[C@@H](O)C[C@]3(C)[C@]2(C(=O)CO)O1 | 0
Cc1c(C(N)=O)cc([N+](=O)[O-])cc1[N+](=O)[O-] | 0
CCCCS(=O)(=O)N[C@@H](Cc1ccc(OCCCCC2CCNCC2)cc1)C(=O)O | 0
Oc1ccc(Cl)cc1Sc1cc(Cl)ccc1O | 1

Req: Record lookup: outcome of this test for O=S1(=O)c2cccc3cccc(c23)N1CCCN1CCN(c2ccc(F)cc2)CC1 ?
Resp: 0

Req: In this assay, the call recorded for NCCC(O)(P(=O)(O)O)P(=O)(O)O was what?
Resp: 0

Req: Please share the test call associated with NC(=O)C(=O)N/N=C/c1ccc([N+](=O)[O-])o1 .
Resp: 0

Req: Identify the outcome logged in this assay for the compound shown: CC(=O)OCC(=O)[C@@]1(O)CC[C@H]2[C@@H]3CCC4=CC(=O)C=C[C@]4(C)[C@H]3[C@@H](O)C[C@@]21C
Resp: 0

Req: Give the logged outcome of this assay for the following compound: C[C@]12CCC(=O)C=C1CC[C@H]1[C@@H]3CC[C@](O)(C(=O)CO)[C@@]3(C)C[C@H](O)[C@@]12F
Resp: 0

Req: Hi, sorry to bother you, what did the test record for CC(=O)Oc1ccc(C(c2ccc(OC(C)=O)cc2)c2ccccn2)cc1 ?
Resp: 0

Req: Can you look up the reported call for CC1(C)O[C@@H]2[C@@H](CO[C@@]3(COS(N)(=O)=O)OC(C)(C)O[C@@H]23)O1 for me?
Resp: 0

Req: Which outcome was entered for the compound CC1(C)O[C@@H]2C[C@H]3[C@@H]4C[C@H](F)C5=CC(=O)C=C[C@]5(C)[C@H]4[C@@H](O)C[C@]3(C)[C@]2(C(=O)CO)O1 in this test?
Resp: 0

Req: Look up the recorded call for CCN1CCN(c2cc3c(cc2F)c(=O)c(C(=O)O)cn3C2CC2)CC1 in this test.
Resp: 0

Req: Lab log entry: Cc1cc(N)c2cc(NC(=O)Nc3ccc4nc(C)cc(N)c4c3)ccc2n1 — outcome as called in the assay?
Resp: 0

Req: Which outcome was assigned to O=C(O)CNC(=O)c1ccccc1 in this test?
Resp: 0

Req: # fetch the recorded call for NC(CO)(CO)CO here
Resp: 0

Req: Outcome? CCOc1ccc(Cc2nccc3cc(OCC)c(OCC)cc23)cc1OCC
Resp: 0

Req: State the result this test recorded for CC(C)(Oc1ccc(Cl)cc1)C(=O)O .
Resp: 0
